Entry source: ChEMBL document CHEMBL1143799

For each of the compounds below, state its TGI.
test system: IGROV-1; test: Growth inhibition of human IGROV1 cells after 48 hrs by SRB protein assay; format: functional; settings: IGROV-1, 48 h, read-out: Log TGI (converted)
Dear colleague, please send the value followed by its unit.

Q: # get_value(readout='TGI', item= O=C(Cc1csc2nc(-c3ccc(Br)cc3)cn12)N/N=C/c1ccc(O)cc1 )
Result: 39.8 µM

Q: Then what about the compound O=C(Cc1csc2nc(-c3ccc(Br)cc3)cn12)N/N=C/c1ccccc1O ?
Result: 11.5 µM

Q: Then what about the compound O=C(Cc1csc2nc(-c3ccc(Br)cc3)cn12)N/N=C/c1ccc(Cl)cc1Cl ?
Result: 45.7 µM

Q: Then what about the compound O=C(Cc1csc2nc(-c3ccc(Br)cc3)cn12)N/N=C/c1ccccc1 ?
Result: 32.4 µM

Q: Then what about the compound COc1cccc(OC)c1/C=N/NC(=O)Cc1csc2nc(-c3ccc(Br)cc3)cn12 ?
Result: 26.9 µM

Q: Then what about the compound Nc1nc2[nH]cnc2c(=S)[nH]1 ?
Result: 145 µM

----------
test system: SNB-75; assay: Growth inhibition of human SNB75 cells after 48 hrs by SRB protein assay; assay type: functional; conditions: SNB-75, 48 h
Rule: GI50 below 10 µM gives rule met. Equal to or above 10 µM gives rule not met.

Q: Find out if reported GI50 for O=C(Cc1csc2nc(-c3ccc(Br)cc3)cn12)N/N=C/c1ccc(Cl)cc1Cl is less than 10 µM
Result: rule not met

Q: Then what about the molecule Nc1nc2[nH]cnc2c(=S)[nH]1 [THIOGUANINE] ?
Result: rule met

Q: Then what about the molecule O=C(Cc1csc2nc(-c3ccc(Br)cc3)cn12)N/N=C/c1ccc(O)cc1 ?
Result: rule not met

Q: Then what about the molecule O=C(Cc1csc2nc(-c3ccc(Br)cc3)cn12)N/N=C/c1ccccc1 ?
Result: rule not met

Q: Then what about the molecule O=C(Cc1csc2nc(-c3ccc(Br)cc3)cn12)N/N=C/c1ccccc1O ?
Result: rule not met

Q: Then what about the molecule COc1cccc(OC)c1/C=N/NC(=O)Cc1csc2nc(-c3ccc(Br)cc3)cn12 ?
Result: rule not met

----------
tested on: K562; test: Growth inhibition of human K562 cells after 48 hrs by SRB protein assay; type: functional; conditions: K562, 48 h
For each of the compounds below, state its GI50.
# number only, unit nM dropped from output

Q: Write down the reported GI50 of Nc1nc2[nH]cnc2c(=S)[nH]1 [THIOGUANINE] , test system: K562.
Result: 407

Q: Then what about the compound O=C(Cc1csc2nc(-c3ccc(Br)cc3)cn12)N/N=C/c1ccc(O)cc1 ?
Result: 1820

Q: Then what about the compound COc1cccc(OC)c1/C=N/NC(=O)Cc1csc2nc(-c3ccc(Br)cc3)cn12 ?
Result: 2950

Q: Then what about the compound O=C(Cc1csc2nc(-c3ccc(Br)cc3)cn12)N/N=C/c1ccccc1O ?
Result: 37.1

----------
system: SK-MEL-2; test: Growth inhibition of human SK-MEL-2 cells after 48 hrs by SRB protein assay; assay type: functional; conditions: SK-MEL-2, 48 h
Rule: GI50 below 30 µM gives Yes. Equal to or above 30 µM gives No.

Q: Find out if reported GI50 for O=C(Cc1csc2nc(-c3ccc(Br)cc3)cn12)N/N=C/c1ccccc1O is less than 30 µM
Result: Yes

Q: Then what about the molecule O=C(Cc1csc2nc(-c3ccc(Br)cc3)cn12)N/N=C/c1ccccc1 ?
Result: No

Q: Then what about the molecule Nc1nc2[nH]cnc2c(=S)[nH]1 ?
Result: Yes

Q: Then what about the molecule O=C(Cc1csc2nc(-c3ccc(Br)cc3)cn12)N/N=C/c1ccc(Cl)cc1Cl ?
Result: No

Q: Then what about the molecule COc1cccc(OC)c1/C=N/NC(=O)Cc1csc2nc(-c3ccc(Br)cc3)cn12 ?
Result: No

Q: Then what about the molecule O=C(Cc1csc2nc(-c3ccc(Br)cc3)cn12)N/N=C/c1ccc(O)cc1 ?
Result: Yes

----------
tested on: MCF7; assay: Growth inhibition of human MCF7 cells after 48 hrs by SRB protein assay; assay type: functional; details: MCF7, 48 h, read-out: Log TGI (converted)
readout: TGI

Q: # get_value(readout='TGI', item= O=C(Cc1csc2nc(-c3ccc(Br)cc3)cn12)N/N=C/c1ccccc1 )
Result: > 100 µM

Q: Then what about the compound Nc1nc2[nH]cnc2c(=S)[nH]1 ?
Result: 42.7 µM

Q: Then what about the compound O=C(Cc1csc2nc(-c3ccc(Br)cc3)cn12)N/N=C/c1ccccc1O ?
Result: > 100 µM

Q: Then what about the compound COc1cccc(OC)c1/C=N/NC(=O)Cc1csc2nc(-c3ccc(Br)cc3)cn12 ?
Result: > 100 µM

Q: Then what about the compound O=C(Cc1csc2nc(-c3ccc(Br)cc3)cn12)N/N=C/c1ccc(Cl)cc1Cl ?
Result: > 100 µM

Q: Then what about the compound O=C(Cc1csc2nc(-c3ccc(Br)cc3)cn12)N/N=C/c1ccc(O)cc1 ?
Result: > 100 µM

----------
For each of the molecules below, state its TGI.
system: PC-3; test: Growth inhibition of human PC3 cells after 48 hrs by SRB protein assay; format: functional; settings: PC-3, 48 h, read-out: Log TGI (converted)
# number only, unit µM dropped from output

Q: # get_value(readout='TGI', item= COc1cccc(OC)c1/C=N/NC(=O)Cc1csc2nc(-c3ccc(Br)cc3)cn12 )
Result: 93.3

Q: Then what about the molecule O=C(Cc1csc2nc(-c3ccc(Br)cc3)cn12)N/N=C/c1ccccc1O ?
Result: 16.6

Q: Then what about the molecule Nc1nc2[nH]cnc2c(=S)[nH]1 ?
Result: 174

Q: Then what about the molecule O=C(Cc1csc2nc(-c3ccc(Br)cc3)cn12)N/N=C/c1ccc(O)cc1 ?
Result: 23.4

----------
system: SW-620; experiment: Growth inhibition of human SW620 cells after 48 hrs by SRB protein assay; assay type: functional; details: SW-620, 48 h, read-out: Log TGI (converted)
For each of the compounds below, state its TGI.
# number only, unit µM dropped from output

Q: # get_value(readout='TGI', item= COc1cccc(OC)c1/C=N/NC(=O)Cc1csc2nc(-c3ccc(Br)cc3)cn12 )
Result: 49

Q: Then what about the compound Nc1nc2[nH]cnc2c(=S)[nH]1 ?
Result: 63.1

Q: Then what about the compound O=C(Cc1csc2nc(-c3ccc(Br)cc3)cn12)N/N=C/c1ccccc1O ?
Result: 17.4

Q: Then what about the compound O=C(Cc1csc2nc(-c3ccc(Br)cc3)cn12)N/N=C/c1ccc(Cl)cc1Cl ?
Result: 60.3

Q: Then what about the compound O=C(Cc1csc2nc(-c3ccc(Br)cc3)cn12)N/N=C/c1ccccc1 ?
Result: 63.1

----------
tested on: TK-10; assay: Growth inhibition of human TK10 cells after 48 hrs by SRB protein assay; type: functional; settings: TK-10, 48 h, read-out: Log TGI (converted)
readout: TGI (µM)
# number only, unit µM dropped from output

Q: # get_value(readout='TGI', item= O=C(Cc1csc2nc(-c3ccc(Br)cc3)cn12)N/N=C/c1ccccc1O )
Result: 8.71

Q: Then what about the molecule COc1cccc(OC)c1/C=N/NC(=O)Cc1csc2nc(-c3ccc(Br)cc3)cn12 ?
Result: 51.3

Q: Then what about the molecule O=C(Cc1csc2nc(-c3ccc(Br)cc3)cn12)N/N=C/c1ccccc1 ?
Result: 41.7

Q: Then what about the molecule O=C(Cc1csc2nc(-c3ccc(Br)cc3)cn12)N/N=C/c1ccc(O)cc1 ?
Result: 33.1

Q: Then what about the molecule Nc1nc2[nH]cnc2c(=S)[nH]1 [THIOGUANINE] ?
Result: 79.4

----------
system: HT-29; assay: Growth inhibition of human HT29 cells after 48 hrs by SRB protein assay; type: functional; conditions: HT-29, 48 h
For each of the compounds below, state its GI50.
# number only, unit µM dropped from output

Q: # get_value(readout='GI50', item= COc1cccc(OC)c1/C=N/NC(=O)Cc1csc2nc(-c3ccc(Br)cc3)cn12 )
Result: 16.2

Q: Then what about the compound O=C(Cc1csc2nc(-c3ccc(Br)cc3)cn12)N/N=C/c1ccc(Cl)cc1Cl ?
Result: 40.7

Q: Then what about the compound O=C(Cc1csc2nc(-c3ccc(Br)cc3)cn12)N/N=C/c1ccc(O)cc1 ?
Result: 50.1

Q: Then what about the compound Nc1nc2[nH]cnc2c(=S)[nH]1 [THIOGUANINE] ?
Result: 1.15

Q: Then what about the compound O=C(Cc1csc2nc(-c3ccc(Br)cc3)cn12)N/N=C/c1ccccc1O ?
Result: 6.03

Q: Then what about the compound O=C(Cc1csc2nc(-c3ccc(Br)cc3)cn12)N/N=C/c1ccccc1 ?
Result: 43.7

----------
tested on: SW-620; assay: Growth inhibition of human SW620 cells after 48 hrs by SRB protein assay; type: functional; settings: SW-620, 48 h
Rule: GI50 below 20 µM gives 1.0. Equal to or above 20 µM gives 0.0.

Q: Find out if reported GI50 for O=C(Cc1csc2nc(-c3ccc(Br)cc3)cn12)N/N=C/c1ccccc1O is less than 20 µM
Result: 1.0

Q: Then what about the compound O=C(Cc1csc2nc(-c3ccc(Br)cc3)cn12)N/N=C/c1ccccc1 ?
Result: 1.0

Q: Then what about the compound O=C(Cc1csc2nc(-c3ccc(Br)cc3)cn12)N/N=C/c1ccc(O)cc1 ?
Result: 0.0

Q: Then what about the compound O=C(Cc1csc2nc(-c3ccc(Br)cc3)cn12)N/N=C/c1ccc(Cl)cc1Cl ?
Result: 0.0

Q: Then what about the compound Nc1nc2[nH]cnc2c(=S)[nH]1 [THIOGUANINE] ?
Result: 1.0

Q: Then what about the compound COc1cccc(OC)c1/C=N/NC(=O)Cc1csc2nc(-c3ccc(Br)cc3)cn12 ?
Result: 1.0
